Measured On: human TRPC5 (Homo sapiens)
Construct: expressed in transfected cells; host or cells: HEK 293
Sequence (Q9UL62 1-973): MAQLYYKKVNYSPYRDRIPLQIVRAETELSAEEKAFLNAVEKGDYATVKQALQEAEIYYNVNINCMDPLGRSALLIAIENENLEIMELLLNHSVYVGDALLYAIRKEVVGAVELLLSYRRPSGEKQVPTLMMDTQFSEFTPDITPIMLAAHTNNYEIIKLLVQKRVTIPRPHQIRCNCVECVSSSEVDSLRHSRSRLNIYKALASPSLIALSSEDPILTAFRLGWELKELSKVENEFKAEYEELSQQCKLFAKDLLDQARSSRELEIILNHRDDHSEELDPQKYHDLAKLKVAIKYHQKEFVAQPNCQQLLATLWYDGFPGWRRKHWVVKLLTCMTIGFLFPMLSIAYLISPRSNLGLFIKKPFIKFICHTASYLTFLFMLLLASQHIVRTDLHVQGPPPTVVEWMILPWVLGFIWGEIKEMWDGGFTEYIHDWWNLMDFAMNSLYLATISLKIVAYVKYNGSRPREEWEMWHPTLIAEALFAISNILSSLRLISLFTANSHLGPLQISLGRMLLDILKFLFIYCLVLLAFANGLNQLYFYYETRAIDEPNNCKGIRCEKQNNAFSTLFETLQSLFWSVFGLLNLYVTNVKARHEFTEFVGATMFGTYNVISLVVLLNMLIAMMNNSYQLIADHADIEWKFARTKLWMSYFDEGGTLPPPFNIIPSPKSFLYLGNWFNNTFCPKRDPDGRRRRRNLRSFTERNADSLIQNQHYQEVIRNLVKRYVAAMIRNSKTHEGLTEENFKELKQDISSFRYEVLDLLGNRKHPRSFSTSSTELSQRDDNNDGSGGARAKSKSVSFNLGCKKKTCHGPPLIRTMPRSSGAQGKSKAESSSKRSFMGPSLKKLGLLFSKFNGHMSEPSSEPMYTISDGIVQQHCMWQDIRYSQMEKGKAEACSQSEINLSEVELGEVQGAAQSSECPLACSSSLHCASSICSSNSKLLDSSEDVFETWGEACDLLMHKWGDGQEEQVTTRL
Assay Method Text: Automated patch clamp assay (QPatch), current block after stimulation with rosiglitazone
Assay type: cell-based
Condition Notes: HEK293 cells overexpressing TRPC5, whole cell automated patch, 100 mV, 1-substituted 7-azaindoles, read-out: TRPC5 IC50 100 mV
pIC50: −log10 of the molar value.
Record form. Attribute: pIC50. Fill in for each entry.

In: pIC50 for COc1ccc(Cn2c(C(C)(C)C)cc3cccnc32)cc1 ?
Out: < 4.52

In: Now the same for CCN(CC)Cc1cc2cccnc2n1Cc1ccccc1
Out: 5.38

In: Cool, now Cc1nn(C)cc1Cn1c(C(C)(C)C)cc2cccnc21
Out: < 4.52

In: Now consider COCCc1cc2cccnc2n1Cc1ccccc1 .
Out: < 4.52

In: One more molecule: COC(C)(C)Cc1cc2cccnc2n1Cc1ccccc1
Out: 5.07

In: Please answer likewise for COc1cccc(Cn2c(C(C)(C)C)cc3cccnc32)c1
Out: < 4.52

In: Please answer likewise for CC(C)(C)c1cc2cccnc2n1Cc1cncc(F)c1
Out: < 4.52

----------
Measured On: human TRPC5 (Homo sapiens, UniProt Q9UL62)
Construct: expressed in transfected cells; host or cells: HEK 293
Assay Method Text: Automated patch clamp assay (QPatch), current block after stimulation with rosiglitazone
Type: cell-based
Condition Notes: HEK293 cells overexpressing TRPC5, whole cell automated patch, 100 mV, 1-substituted 7-azaindoles, read-out: TRPC5 IC50 100 mV
Procedure: HEK 293 cells expressing human TRPC5 were harvested, re-suspended in serum free medium, and added to the automated platform and used within 2-3 hours. Internal and external physiological solutions were freshly prepared prior to the assay. […] The automated electrophysiological platform QPatch 16 from Sophion (Denmark) was used to carry out the compounds profiling. The series resistance and quality of seals were continuously monitored during the experiments. […]
Property Name: IC50

In: Any idea what IC50 was measured for CC(C)Cc1cc2cccnc2n1Cc1ccccc1 [drawing 73] ?
Out: > 30 µM

In: Subsequent entry: CC(C)(C)c1cc2cc(OCCCO)cnc2n1Cc1ccccc1
Out: > 30 µM

In: Same read-out for c1ccc(Cn2c(CN3CCCC3)cc3cccnc32)cc1 ?
Out: 16.6 µM

In: Try CC(C)(C)c1cc2cccnc2n1C[C@H]1CC[C@H](C)CC1 [drawing 113] next.
Out: > 30 µM

In: Then this molecule: CC(C)(O)c1cc2cccnc2n1Cc1ccccc1 [drawing 81]
Out: > 30 µM

In: Ok, now COC(C)(C)c1cc2cccnc2n1Cc1ccccc1
Out: > 30 µM

The reported numbers originate from patent US20210115036A1.
